All values here come from patent US6656911B2.

Task for the reader: assign each of the following compounds its reported concentration at 1 h.
- Test: Blood level screening after oral dose
- Assay type: in vivo, Sprague-Dawley rats
- Condition Context: male, Sprague-Dawley, plasma; rat, oral gavage 10 mg/kg, 1 hr; read-out: Plasma Levels (μM) 1 hr
Unit µM implied. Number only.

Input line: Record request: concentration at 1 h value, item Cc1cccc(Cc2nnc(C(=O)[C@@H](NC(=O)Cn3c(-c4ccc(F)cc4)ncc(N)c3=O)C(C)C)o2)c1 [CE2101]
Output line: 1.24

Input line: Next: Cc1cccc(Cc2nnc(C(=O)[C@@H](NC(=O)Cn3c(-c4ccccc4)ncc(N)c3=O)C(C)C)o2)c1 [CE2260]
Output line: 3.53

Input line: Next: Cc1cccc(Cc2nnc(C(=O)[C@@H](NC(=O)CN3C(=O)CN=C(c4ccc(C(F)(F)F)cc4)c4ccccc43)C(C)C)o2)c1 [CE2237]
Output line: 1.02

Input line: Next: Cc1cccc(Cc2nnc(C(=O)[C@@H](NC(=O)CN3C(=O)CN=C(C4CCNCC4)c4ccccc43)C(C)C)o2)c1 [CE2233]
Output line: 0.07

###

- Tested Target: human neutrophil elastase (HNE) (Homo sapiens)
- Test: HNE Ki of CE compounds, tested as described in WO 96/16080
- Type: biochemical
- Condition Context: read-out: HNE Ki
# Y = Ki below 10 nM (exclusive); N = Ki at/above 10 nM

Input line: I'd appreciate it if you could check whether CC(C)[C@H](NC(=O)[C@@H]1CCCN1C(=O)[C@@H](NC(=O)OCc1ccccc1)C(C)C)C(=O)c1noc(Cc2cccnc2)n1 has Ki smaller than 10 nM.
Output line: Y

Input line: Next: CC(C)[C@H](NC(=O)CN1C(=O)N[C@H](Cc2ccc(O)cc2)C1=O)C(=O)c1nnc(Cc2ccc3c(c2)OCO3)o1
Output line: N

Input line: Next: Cc1cccc(Cc2nnc(C(=O)C(NC(=O)CN3C(=O)C(N)N=C(c4ccccc4)c4ccccc43)C(C)C)o2)c1 (stereo not shown)
Output line: Y

Input line: Next: COC(=O)c1c(F)c2ccccc2n(CC(=O)N[C@H](C(=O)c2nnc(Cc3cccc(C)c3)o2)C(C)C)c1=O
Output line: N

Input line: Next: Cc1cccc(Cc2nnc(C(=O)[C@@H](NC(=O)CN3C(=O)N[C@H](CC(=O)N(C)C)C3=O)C(C)C)o2)c1
Output line: N

Input line: Next: Cc1cccc(Cc2nnc(C(=O)[C@@H](NC(=O)Cn3c(=O)[nH]n(-c4ccccc4)c3=O)C(C)C)o2)c1
Output line: N

Input line: Next: Cc1cccc(Cc2nnc(C(=O)C(NC(=O)CN3C(=O)CCSC3c3ccccc3)C(C)C)o2)c1 (stereo not shown)
Output line: N

###

- Test: Blood level screening after oral dose
- Assay type: in vivo, Sprague-Dawley rats
- Condition Context: rat, oral gavage 10 mg/kg, 1 hr
Task for the reader: assign each of the following molecules its reported Plasma Levels (μM) 1 hr.
Unit µM implied. Number only.

Input line: Record request: Plasma Levels (μM) 1 hr value, item Cc1cccc(Cc2nnc(C(=O)[C@@H](NC(=O)CN3C(=O)NC(C)(C)C3=O)C(C)C)o2)c1
Output line: 1.46

Input line: Next: Cc1cccc(Cc2nnc(C(=O)[C@@H](NC(=O)CN3C(=O)NC4(CCCC4)C3=O)C(C)C)o2)c1
Output line: 1.226

Input line: Next: Cc1cccc(Cc2nnc(C(=O)[C@@H](NC(=O)CN3C(=O)CN=C(c4ccc5c(c4)OCO5)c4ccccc43)C(C)C)o2)c1
Output line: 1.65

###

- Test: Blood level screening after oral dose
- Format: in vivo, Sprague-Dawley rats
- Condition Context: rat, oral gavage 10 mg/kg, 6 hr
Classes by Plasma Levels (μM) 6 hr: 0 (below 0.5 µM), 1 (0.5 µM to below 1 µM), 2 (1 µM or more)

Input line: Could you tell me which band COC(=O)CCC[C@H]1NC(=O)N(CC(=O)N[C@H](C(=O)c2nnc(Cc3cccc(C)c3)o2)C(C)C)C1=O belongs to?
Output line: 0

Input line: Next: Cc1cccc(Cc2nnc(C(=O)[C@@H](NC(=O)CN3C(=O)N[C@H](Cc4c[nH]c5ccccc45)C3=O)C(C)C)o2)c1
Output line: 2

Input line: Next: Cc1cccc(Cc2nnc(C(=O)[C@@H](NC(=O)CN3C(=O)N[C@@H](CC(C)C)C3=O)C(C)C)o2)c1
Output line: 1

Input line: Next: Cc1cccc(Cc2nnc(C(=O)[C@@H](NC(=O)CN3C(=O)NC4(CCCCC4)C3=O)C(C)C)o2)c1
Output line: 0

Input line: Next: Cc1cccc(Cc2nnc(C(=O)[C@@H](NC(=O)CN3C(=O)NC(C)(C)C3=O)C(C)C)o2)c1
Output line: 1

Input line: Next: Cc1cccc(Cc2nnc(C(=O)[C@@H](NC(=O)Cn3c(=O)ncc4ccccc43)C(C)C)o2)c1
Output line: 1

Input line: Next: Cc1cccc(Cc2nnc(C(=O)[C@@H](NC(=O)CN3C(=O)CN=C(c4ccc5c(c4)OCO5)c4ccccc43)C(C)C)o2)c1
Output line: 2

###

- Test: Blood level screening after oral dose
- Assay type: in vivo, Sprague-Dawley rats
- Condition Context: male, Sprague-Dawley, plasma; rat, oral gavage 10 mg/kg, 3 hr; read-out: Plasma Levels (μM) 3 hr
Classification field: enter rule met for concentration at 3 h values not below 0.9 µM, rule not met for values below it.

Input line: Evaluate Cc1cccc(Cc2nnc(C(=O)[C@@H](NC(=O)CN3C(=O)CN(CCN4CCOCC4)C(=O)[C@H]3Cc3ccccc3)C(C)C)o2)c1 : concentration at 3 h at minimum 0.9 µM?
Output line: rule not met

Input line: Next: CC(C)[C@H](NC(=O)[C@@H]1Cc2ccccc2N1C(=O)[C@@H](NC(=O)OCc1ccccc1)C(C)C)C(=O)c1noc(Cc2cccc(C(F)(F)F)c2)n1
Output line: rule not met

Input line: Next: CC(=O)N1CC(=O)N(CC(=O)N[C@H](C(=O)c2nnc(Cc3cccc(C)c3)o2)C(C)C)C(=Cc2ccccc2)C1=O
Output line: rule not met

Input line: Next: Cc1cccc(Cc2nnc(C(=O)C(NC(=O)CN3C(=O)C(N)N=C(c4ccc(Cl)cc4)c4ccccc43)C(C)C)o2)c1 (centres unmarked)
Output line: rule met

###

- Tested Target: human neutrophil elastase (HNE) (Homo sapiens, UniProt P08246)
- Sequence (P08246 30-267): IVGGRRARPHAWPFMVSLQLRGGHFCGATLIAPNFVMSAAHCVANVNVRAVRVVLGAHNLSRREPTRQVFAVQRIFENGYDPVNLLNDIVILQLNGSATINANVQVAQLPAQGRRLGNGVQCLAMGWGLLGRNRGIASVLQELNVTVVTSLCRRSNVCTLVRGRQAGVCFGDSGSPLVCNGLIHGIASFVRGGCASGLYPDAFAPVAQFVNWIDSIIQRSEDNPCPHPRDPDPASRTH
- Test: HNE Ki of CE compounds, tested as described in WO 96/16080
- Type: biochemical
- Condition Context: read-out: HNE Ki
pKi: −log10 of the molar value.
Classification field: enter yes (1) for pKi values not below 9, no (0) for values below it.

Input line: Evaluate Cc1cccc(Cc2nnc(C(=O)C(NC(=O)Cn3c(=O)c(N)cc4ccccc43)C(C)C)o2)c1 (racemic) [CE2228] : pKi at minimum 9?
Output line: no (0)

Input line: Next: Cc1cccc(Cc2nnc(C(=O)C(NC(=O)CN3C(=O)C(c4ccccc4)N(CCN4CCOCC4)C3=O)C(C)C)o2)c1 (stereo not drawn) [CE2192]
Output line: no (0)

Input line: Next: Cc1cccc(Cc2nnc(C(=O)[C@@H](NC(=O)Cn3c(-c4ccc(F)cc4)ccc(N)c3=O)C(C)C)o2)c1 [CE2251]
Output line: yes (1)

Input line: Next: CC(C)[C@H](NC(=O)CN1C(=O)CN(Cc2ccccc2)C(=O)[C@H]1Cc1ccccc1)C(=O)c1noc(Cc2cccc(C(F)(F)F)c2)n1 [CE2146]
Output line: no (0)

Input line: Next: Cc1cccc(Cc2nnc(C(=O)[C@@H](NC(=O)CN3C(=O)N[C@@H](C(C)C)C3=O)C(C)C)o2)c1 [CE2240]
Output line: no (0)

Input line: Next: CC(C)[C@H](NC(=O)[C@@H]1CCCN1C(=O)[C@@H](NC(=O)OCc1ccccc1)C(C)C)C(=O)c1noc(Cc2cccc(-c3ccccc3)c2)n1 [CE2062]
Output line: yes (1)

Input line: Next: CC(C)[C@H](NC(=O)CN1C(=O)CN(Cc2ccccc2)C(=O)[C@@H]1Cc1ccccc1)C(=O)c1noc(CCN(C)C)n1 [CE2133]
Output line: no (0)

Input line: Next: CC(=O)N1c2ccccc2C[C@H]1C(=O)N[C@H](C(=O)c1nnc(Cc2cccc(C)c2)o1)C(C)C [CE2165]
Output line: no (0)

Input line: Next: CCc1cccc(Cc2nnc(C(=O)[C@@H](NC(=O)CN3C(=O)NC(=Cc4cccnc4)C3=O)C(C)C)o2)c1 [CE2205]
Output line: no (0)

Input line: Next: Cc1cccc(Cc2nc(C(=O)C(NC(=O)[C@@H]3Cc4cccc5c4N3C(=O)[C@@H](N)CC5)C(C)C)no2)c1 (stereo partly drawn) [CE2220]
Output line: no (0)

Input line: Next: Cc1cccc(Cc2nnc(C(=O)[C@@H](NC(=O)CN3C[C@@H](c4ccccc4)N(C(=O)OCc4ccccc4)CC3=O)C(C)C)o2)c1 [CE2204]
Output line: no (0)

Input line: Next: CC(C)[C@H](NC(=O)[C@@H]1CCCN1C(=O)[C@@H](NC(=O)OCc1ccccc1)C(C)C)C(=O)c1noc(C(C)(C)c2cccc(C(F)(F)F)c2)n1 [CE2073]
Output line: yes (1)

Input line: Next: Cc1cccc(Cc2nnc(C(=O)[C@@H](NC(=O)[C@@H]3Cc4ccccc4N3C(=O)[C@@H](NC(=O)OCc3ccccc3)C(C)C)C(C)C)o2)c1 [CE2145]
Output line: yes (1)

Input line: Next: CC(C)[C@H](NC(=O)[C@@H]1CCCN1C(=O)[C@@H](NC(=O)OCc1ccccc1)C(C)C)C(=O)c1noc(C(c2ccccc2)c2ccccc2)n1 [CE2057]
Output line: yes (1)

Input line: Next: CC(=O)N1CC(=O)N(CC(=O)N[C@H](C(=O)c2nnc(Cc3cccc(C)c3)o2)C(C)C)C(=Cc2ccncc2)C1=O [CE2114]
Output line: no (0)
